target: T1, Recombinant human PDGF-BB (human, UniProt P01127 82-190); assay: SPR (ProteOn), biotinylated PDGF-BB on neutravidin chip, DARPin injected; Kd from on- and off-rates
T1 construct: For SPR it was chemically biotinylated on primary amines and captured on neutravidin; also called PDGF-BB (human); Reliatech 200-055
T1 sequence (P01127 82-190 limits assumed): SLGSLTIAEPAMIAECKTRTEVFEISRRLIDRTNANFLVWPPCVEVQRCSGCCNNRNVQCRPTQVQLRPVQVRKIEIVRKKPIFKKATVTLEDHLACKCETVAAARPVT
Value Kind: pKd
# pKd is unitless: minus log10 of the molar concentration; print number only

Binder | pKd
DARPin #44 (designed binder) MRGSHHHHHHGSDLGAKLLHAAVVGQDDEVRILLAAGADVNAKDKSGHTPLHLAAYSGHLEIVEVLLKAGADVNAKDQEGTTPLHFAASVGHLEIVEVLLKAGADVNAQDHYGATPADLAALIGHEDIAEVLQKLN | 10.11
DARPin #51 (designed binder) MRGSHHHHHHGSDLGKKLLEAARAGQDDEVRILMANGADVNAKDLNGQTPLHLAADIGHLEIVEVLLKAGADVNAKDYAGSTPLRLAAWAGHLEIVEVLLKAGADVNAKDYFGYTPLHLAAYFGHLEIVEVLLKAGADVNAQDKFGKTAFDISIDNGNEDLAEILQKLN | 9.92
DARPin #34 (designed binder) MRGSHHHHHHGSDLGDKLLQSDLGRKLLHAARSGQDDEVRILLAAGADVNAKDEDGTTPLHYAAAWGHLEIVEVLLKAGADVNAQDIYGATPADLAAYIGHEDIAEVLQKLN | 10.11

The record that follows has no pKd shown yet.
For DARPin #33 (designed binder) MRGSHHHHHHGSDLGHKLLQAAEQGQDDEVRILLAAGADVNAKDEYGTTPLHFAAVWGHLEIVEVLLKAGADVNAQDVFGATPADLAAYVGHEDIAEVLQKLN , what is its reported pKd? 10.09
